Measurement record for PDE1C (Homo sapiens, UniProt Q14123); quantity recorded: IC50.
measure name: IC50 (nM)

[[record]]
molecule = "Cn1c(Cc2ccc(-c3ccccn3)cc2)cc2c(cnn2C2CCOCC2)c1=O"
meas_value = 240

[[record]]
molecule = "COc1cccnc1-c1ccc(Cc2cn3c(C4CCOCC4)ncc3c(=O)n2C)cc1"
meas_value = 161

[[record]]
molecule = "COc1cccc(-c2ccc(Cc3cn4c(C5CCOCC5)ncc4c(=O)n3C)cc2)n1"
meas_value = 42

[[record]]
molecule = "CC1OCCC1c1ncc2c(=O)n(C)c(Cc3ccc(-c4cccc(F)n4)cc3)cn12 (single isomer, unassigned; isomer 4) [Example 32]"
meas_value = 9.2

[[record]]
molecule = "Cn1cnc(-c2ccc(Cc3cn4c(C5CCOCC5)ncc4c(=O)n3C)cc2)c1"
meas_value = 157

[[record]]
molecule = "Cn1c(Cc2ccc(-c3cccc(F)n3)cc2)cn2c(C3CCOC3)ncc2c1=O (single isomer, unassigned; isomer 2) [Example 28]"
meas_value = 111

[[record]]
molecule = "Cn1c(Cc2ccc(-c3cccc(F)n3)cc2)cc2c(cnn2C2CCOCC2)c1=O"
meas_value = 190

[[record]]
molecule = "Cc1cccc(-c2ccc(Cc3cc4c(cnn4C4CCOCC4)c(=O)n3C)cc2)n1"
meas_value = 220

[[record]]
molecule = "Cn1c(Cc2ccc(-c3ccncn3)cc2)cn2c(C3CCOCC3)ncc2c1=O"
meas_value = 149

[[record]]
molecule = "COc1ccc(Cn2c(CN3CCN(c4ccccn4)CC3)cn3c(C4CCOCC4)ncc3c2=O)cc1"
meas_value = 190

[[record]]
molecule = "Cn1c(Cc2ccc(-c3cccc(F)n3)cc2)nc2c(cnn2C2CCOCC2)c1=O"
meas_value = 2100

[[record]]
molecule = "Cn1c(Cc2ccc(-c3cccc(F)n3)cc2)cn2c(C3CCOC3)ncc2c1=O (single isomer, unassigned; isomer 1) [Example 27]"
meas_value = 96

[[record]]
molecule = "CC1OCCC1c1ncc2c(=O)n(C)c(Cc3ccc(-c4cccc(F)n4)cc3)cn12 (single isomer, unassigned; isomer 3) [Example 31]"
meas_value = 45


* * *

- system name: PDE1B (Homo sapiens)
- Sequence (Q01064 whole entry): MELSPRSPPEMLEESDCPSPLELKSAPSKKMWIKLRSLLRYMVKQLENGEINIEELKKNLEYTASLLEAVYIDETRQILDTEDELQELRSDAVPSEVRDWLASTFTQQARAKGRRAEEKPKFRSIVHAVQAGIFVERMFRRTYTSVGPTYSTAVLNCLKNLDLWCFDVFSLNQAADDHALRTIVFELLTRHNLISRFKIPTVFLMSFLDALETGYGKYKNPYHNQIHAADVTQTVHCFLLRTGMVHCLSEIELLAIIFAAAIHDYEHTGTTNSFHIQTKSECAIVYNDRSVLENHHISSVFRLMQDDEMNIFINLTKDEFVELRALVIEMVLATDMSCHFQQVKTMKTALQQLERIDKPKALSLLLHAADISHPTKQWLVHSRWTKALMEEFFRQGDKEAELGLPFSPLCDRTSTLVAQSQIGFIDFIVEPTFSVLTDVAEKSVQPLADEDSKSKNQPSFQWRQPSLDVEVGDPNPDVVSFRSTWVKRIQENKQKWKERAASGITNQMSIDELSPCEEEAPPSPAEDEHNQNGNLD
- assay explanation: PDE1 inhibition assay (PDE1B)
- Type: biochemical
- stated conditions: 15 nM tritium labelled cAMP, SPA
Please respond with condition met when measured IC50 is strictly beneath 10 nM, and with condition not met in all other cases.

[[record]]
compound = "CC1OCCC1c1ncc2c(=O)n(C)c(Cc3ccc(-c4cccc(F)n4)cc3)cn12 (single isomer, unassigned; isomer 1) [Example 29]"
label = "condition not met"

[[record]]
compound = "Cn1c(Cc2ccc(-c3ccccn3)cc2)cn2c(C3CCOCC3)ncc2c1=O"
label = "condition met"

[[record]]
compound = "Cn1c(Cc2ccc(-c3cccc(F)n3)cc2)nc2c(cnn2C2CCOCC2)c1=O"
label = "condition not met"

[[record]]
compound = "COc1ccc(Cn2c(CN3CCN(c4ccccn4)CC3)cn3c(C4CCOCC4)ncc3c2=O)cc1"
label = "condition not met"

